The reported measurements were obtained from patent US11566007B2.

# testedTarget: KRAS G12D (Homo sapiens (Human), UniProt P01116+P62937, G12D)
# Sequence (P01116-2 other isoform, or with tags, fused parts or gaps G12D): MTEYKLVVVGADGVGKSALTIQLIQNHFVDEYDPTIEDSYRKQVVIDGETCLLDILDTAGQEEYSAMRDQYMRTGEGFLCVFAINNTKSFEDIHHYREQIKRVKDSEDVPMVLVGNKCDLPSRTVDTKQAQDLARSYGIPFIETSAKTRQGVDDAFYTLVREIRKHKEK
# Sequence (P62937 whole entry): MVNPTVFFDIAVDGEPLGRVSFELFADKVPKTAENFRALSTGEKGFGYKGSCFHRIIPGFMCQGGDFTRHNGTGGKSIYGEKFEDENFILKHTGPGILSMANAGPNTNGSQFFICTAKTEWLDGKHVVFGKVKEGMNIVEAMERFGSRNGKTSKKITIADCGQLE
# testMethodNotes: Ras-Raf (BRAF RBD) disruption / FRET / MOA assay, KRAS G12D
# Format: biochemical
# protocolConditions: Ras-Raf disruption/FRET/MOA assay; class symbols; read-out: KRAS G12D FRET data IC50
Listing: IC50 of selected compounds

- compound: "C=CC(=O)N1CCC(F)(C(=O)N(C)[C@H](C(=O)N[C@H]2C[C@H]3CN(CCO3)c3ccc4c(c3)c(c(-c3cccnc3[C@H](C)OC)n4CC)CC(C)(C)COC(=O)[C@@H]3CCCN(N3)C2=O)C(C)C)CC1 (atropisomer, axis not shown)"
  IC50: "1 to 10 µM"

Turning now to a further record.
Complete the entry with IC50 for C=CC(=O)N1CC[C@H](C(=O)N2CCCCC[C@H]2C(=O)N[C@H]2Cc3cccc(c3)-c3ccc4c(c3)c(c(-c3cccnc3[C@H](C)OC)n4CC)CC(C)(C)COC(=O)[C@@H]3CCCN(N3)C2=O)C1 (atropisomer, axis not shown)
> 10 µM

---

This listing pairs compounds with measured pIC50.
# testedTarget: KRAS G13D (Homo sapiens (Human), UniProt P01116+P62937, G13D)
# Sequence (P01116-2 other isoform, or with tags, fused parts or gaps G13D, one chain of several): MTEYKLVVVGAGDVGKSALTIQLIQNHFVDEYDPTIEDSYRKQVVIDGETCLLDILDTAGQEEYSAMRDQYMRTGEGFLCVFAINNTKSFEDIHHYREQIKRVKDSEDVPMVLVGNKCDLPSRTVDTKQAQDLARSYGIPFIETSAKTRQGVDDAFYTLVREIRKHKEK
# testMethodNotes: Ras-Raf (BRAF RBD) disruption / FRET / MOA assay, KRAS G13D
# Type: biochemical
# protocolConditions: read-out: IC50* KRAS G13D FRET data
pIC50: −log10 of the molar value.

- compound: "C=CC(=O)N1CCN(C(=O)N(C)[C@H](C(=O)N[C@H]2Cc3cc(O)cc(c3)-c3ccc4c(c3)c(c(-c3ccccc3CCOC)n4CC)CC(C)(C)COC(=O)[C@@H]3CCCN(N3)C2=O)C(C)C)C[C@@H]1COC"
  testedTarget: "KRAS G13D (Homo sapiens (Human), UniProt P01116+P62937, G13D)"
  readoutType: "pIC50"
  recordedResult: "5.00 to 6.00"

Please look at this compound and report its pIC50: CCn1c(-c2cccnc2[C@H](C)OC)c2c3cc(ccc31)-c1csc(n1)C[C@H](NC(=O)C[C@@H](C)OC1CN(C(=O)C#CC(C)(C)N(C)C)C1)C(=O)N1CCC[C@H](N1)C(=O)OCC(C)(C)C2 (atropisomer, axis not shown)
5.00 to 6.00

Supply measured pIC50 of CO[C@@H](C)c1ncccc1-c1c2c3cc(ccc3n1CC(F)(F)F)-c1csc(n1)C[C@H](NC(=O)[C@H](C(C)C)N(C)C(=O)N1CCN(C(=O)/C=C/CN(C)C)C3(CC3)C1)C(=O)N1CCC[C@H](N1)C(=O)OCC(C)(C)C2 (atropisomer, axis not shown) in your reply.
7.00 to 8.00

Tell us which pIC50 value is on record for CCn1c(-c2cccnc2)c2c3cc(ccc31)-c1cc(O)cc(c1)C[C@H](NC(=O)[C@H](C(C)C)N(C)C(=O)[C@H]1CCN(C(=O)C#CCN(C)C)C1)C(=O)N1CCC[C@H](N1)C(=O)OCC(C)(C)C2
5.00 to 6.00

Look up and state reported pIC50 for CCn1c(-c2cccnc2[C@H](C)OC)c2c3cc(ccc31)-c1csc(n1)C[C@H](NC(=O)[C@H](C(C)C)N(C)C(=O)N1CCCOC13CN(C(=O)C#CC(C)(C)N(C)C)C3)C(=O)N1CCC[C@H](N1)C(=O)OCC(C)(C)C2 (atropisomer, axis not shown)
< 5.00

Retrieve pIC50 measured for C=CC(=O)N1CC[C@H](C(=O)N(C)[C@H](C(=O)N[C@H]2Cc3cccc(c3F)-c3ccc4c(c3)c(c(-c3cccnc3[C@H](C)OC)n4CC)CC(C)(C)COC(=O)[C@@H]3CCCN(N3)C2=O)C(C)C)C1 (atropisomer, axis not shown) and print it.
< 5.00

Consider the compound C=CC(=O)N(C)C[C@H]1CCN1C(=O)N(C)[C@H](C(=O)N[C@H]1Cc2nc(cs2)-c2ccc3c(c2)c(c(-c2cccnc2[C@H](C)OC)n3CC)CC(C)(C)COC(=O)[C@@H]2CCCN(N2)C1=O)C(C)C (atropisomer, axis not shown) . State its measured pIC50.
5.00 to 6.00

Give the reported pIC50 for this compound. C=CC(=O)N1CC[C@H](C(=O)N(C)[C@H](C(=O)N[C@H]2Cc3cc(O)cc(c3)-c3ccc4c(c3)c(c(-c3cnccc3[C@@H](OC)C3CC3)n4CC)CC(C)(C)COC(=O)[C@@H]3CCCN(N3)C2=O)C(C)C)C1
< 5.00

Note down pIC50 recorded for C=CC(=O)N1CCO[C@H]2CN(C(=O)N(C)[C@H](C(=O)N[C@H]3Cc4nc(n(C)n4)-c4ccc5c(c4)c(c(-c4cccnc4[C@H](C)OC)n5CC(F)(F)F)CC(C)(C)COC(=O)[C@@H]4CCCN(N4)C3=O)C(C)C)C[C@H]21 (atropisomer, axis not shown)
5.00 to 6.00

Let me know recorded pIC50 for CCn1c(-c2cccnc2[C@H](C)OC)c2c3cc(ccc31)-c1cccc(c1)C[C@H](NC(=O)[C@@H](COC1CN(C(=O)C#C[C@@H]3OCCCN3C)C1)C(C)C)C(=O)N1CCC[C@H](N1)C(=O)OCC(C)(C)C2 (atropisomer, axis not shown) , thanks.
< 5.00

---

Here the recorded IC50 is given for each entry.
# testedTarget: KRAS G12V (Homo sapiens (Human), UniProt P01116+P62937, G12V)
# Sequence (P01116-2 other isoform, or with tags, fused parts or gaps G12V, one chain of several): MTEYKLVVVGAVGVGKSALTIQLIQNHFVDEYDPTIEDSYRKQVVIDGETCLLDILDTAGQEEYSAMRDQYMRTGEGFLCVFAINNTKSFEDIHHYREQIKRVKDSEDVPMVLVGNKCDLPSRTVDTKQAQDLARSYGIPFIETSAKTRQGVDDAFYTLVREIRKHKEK
# testMethodNotes: Ras-Raf (BRAF RBD) disruption / FRET / MOA assay, KRAS G12V
# Type: biochemical
# protocolConditions: read-out: IC50* KRAS G12V FRET data

- compound: "CO[C@@H](C)c1ncccc1-c1c2c3cc(ccc3n1CC(F)(F)F)N1CCO[C@@H](C[C@H](NC(=O)[C@H](C(C)C)N3CC[C@@]4(CCN(C(=O)C#CC(C)(C)N(C)C)C4)C3=O)C(=O)N3CCC[C@H](N3)C(=O)OCC(C)(C)C2)C1 (atropisomer, axis not shown)"
  readoutType: "IC50"
  recordedResult: "1 to 10 µM"
- compound: "C=CC(=O)N1CC[C@H](C(=O)N(C)[C@H](C(=O)N[C@H]2Cc3cccc(c3)-c3ccc4c(c3)c(c(-c3cccnc3[C@H](C)OC)n4CC)CC(C)(C)COC(=O)[C@@H]3CCCN(N3)C2=O)C2CCC2)C1 (atropisomer, axis not shown)"
  readoutType: "IC50"
  recordedResult: "1 to 10 µM"
- compound: "CO[C@@H](C)c1ncccc1-c1c2c3cc(ccc3n1CC(F)(F)F)-c1csc(n1)C[C@H](NC(=O)[C@H](C(C)C)N(C)C(=O)N1C[C@@H]3OCCN(C(=O)/C=C/C(F)F)[C@@H]3C1)C(=O)N1CCC[C@H](N1)C(=O)OCC(C)(C)C2 (atropisomer, axis not shown)"
  readoutType: "IC50"
  recordedResult: "0.1 to 1 µM"

Output IC50 of CCn1c(-c2cccnc2[C@H](C)OC)c2c3cc(ccc31)-c1csc(n1)C[C@H](NC(=O)[C@H](C(C)C)N(C)C(=O)N1CCN(C(=O)/C=C/CN3CCOCC3)C3(CC3)C1)C(=O)N1CCC[C@H](N1)C(=O)OCC(C)(C)C2 (atropisomer, axis not shown)
0.01 to 0.1 µM

---

# IC50 values compiled below
# testedTarget: K-Ras G13C (Homo sapiens (Human), UniProt P01116+P62937, G13C)
# Sequence (P01116-2 other isoform, or with tags, fused parts or gaps G13C): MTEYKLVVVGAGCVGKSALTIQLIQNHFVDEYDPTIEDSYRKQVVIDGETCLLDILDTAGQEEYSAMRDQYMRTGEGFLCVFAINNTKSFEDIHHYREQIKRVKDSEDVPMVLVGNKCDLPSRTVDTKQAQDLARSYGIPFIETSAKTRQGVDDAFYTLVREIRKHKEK
# Sequence (P62937 whole entry): as the sequence (P62937 whole entry) above
# testMethodNotes: Ras-Raf (BRAF RBD) disruption / FRET / MOA assay, KRAS G13C
# Type: biochemical
# protocolConditions: KRAS G13C; Ras-Raf disruption/FRET/MOA assay; read-out: IC50* KRAS G13C FRET data

- compound: "CCn1c(-c2cccnc2[C@H](C)OC)c2c3cc(ccc31)-c1csc(n1)C[C@H](NC(=O)CN1CC[C@@]3(CCN(C(=O)C#CC(C)(C)N4CCC4)C3)C1)C(=O)N1CCC[C@H](N1)C(=O)OCC(C)(C)C2 (atropisomer, axis not shown)"
  testedTarget: "K-Ras G13C (Homo sapiens (Human), UniProt P01116+P62937, G13C)"
  readoutType: "IC50"
  recordedResult: "1000 to 10000 nM"
- compound: "C=CC(=O)N(C)[C@H](C(=O)N[C@H]1Cc2cc(O)cc(c2)-c2ccc3c(c2)c(c(-c2cccnc2COC)n3CC)CC(C)(C)COC(=O)[C@@H]2CCCN(N2)C1=O)C(C)C"
  testedTarget: "K-Ras G13C (Homo sapiens (Human), UniProt P01116+P62937, G13C)"
  readoutType: "IC50"
  recordedResult: "100 to 1000 nM"
- compound: "C=CC(=O)N1CC(N(C)C(=O)N(C)[C@H](C(=O)N[C@H]2Cc3nc(cs3)-c3ccc4c(c3)c(c(-c3cccnc3[C@H](C)OC)n4CC(F)(F)F)CC(C)(C)COC(=O)[C@@H]3CCCN(N3)C2=O)C(C)C)C1 (atropisomer, axis not shown)"
  testedTarget: "K-Ras G13C (Homo sapiens (Human), UniProt P01116+P62937, G13C)"
  readoutType: "IC50"
  recordedResult: "10 to 100 nM"

Look up and state reported IC50 for CCn1c(-c2cccnc2[C@H](C)OC)c2c3cc(ccc31)-c1cccc(c1)C[C@H](NC(=O)[C@H](C(C)C)N(C)C(=O)[C@H]1CCN(C(=O)C#C[C@@H]3COCCN3C)C1)C(=O)N1CCC[C@H](N1)C(=O)OCC(C)(C)C2
1000 to 10000 nM
